- Tested on: Aspergillus niger
- ASSAY OVERVIEW: Antifungal activity against Aspergillus niger at 25 ug/disk after 48 hr by disk diffusion method
- Format: functional
- CONDITION PARAMETERS: read-out: DIZ
zone of inhibition at 25 µg/disc vs 6 mm: at or above is true (1), below is false (0).

| COMPOUND | ASSIGNED CATEGORY |
| --- | --- |
| CCc1ccc(CCOc2ccc(C3=NOC(C(=O)OC)C3)cc2)nc1 (stereo not drawn) | false (0) |
| CCc1ccc(CCOc2ccc(C3=NOC(Cc4ccc5c(c4)OCO5)C3)cc2)nc1 (stereo not drawn) | false (0) |
| CCc1ccc(CCOc2ccc(C3=NOC(C#N)C3)cc2)nc1 (stereo not drawn) | false (0) |
| CCc1ccc(CCOc2ccc(C3=NOC(c4ccccc4)C3)cc2)nc1 (stereo not drawn) | false (0) |
| CCc1ccc(CCOc2ccc(C3=NOC(CO)C3)cc2)nc1 (stereo not drawn) | true (1) |
| CCc1ccc(CCOc2ccc(C3=NOC(Cc4ccc(O)c(OC)c4)C3)cc2)nc1 (stereo not drawn) | true (1) |
